The entries below come with measured rec. Human PAPP-A IGFBP5 pIC50 (G-401 pAKT assay) values attached.
# assayedTarget: recombinant human PAPPA (pregnancy associated plasma protein-A) (human, UniProt Q13219 82-1627)
# Sequence (Q13219 82-1627 limits assumed): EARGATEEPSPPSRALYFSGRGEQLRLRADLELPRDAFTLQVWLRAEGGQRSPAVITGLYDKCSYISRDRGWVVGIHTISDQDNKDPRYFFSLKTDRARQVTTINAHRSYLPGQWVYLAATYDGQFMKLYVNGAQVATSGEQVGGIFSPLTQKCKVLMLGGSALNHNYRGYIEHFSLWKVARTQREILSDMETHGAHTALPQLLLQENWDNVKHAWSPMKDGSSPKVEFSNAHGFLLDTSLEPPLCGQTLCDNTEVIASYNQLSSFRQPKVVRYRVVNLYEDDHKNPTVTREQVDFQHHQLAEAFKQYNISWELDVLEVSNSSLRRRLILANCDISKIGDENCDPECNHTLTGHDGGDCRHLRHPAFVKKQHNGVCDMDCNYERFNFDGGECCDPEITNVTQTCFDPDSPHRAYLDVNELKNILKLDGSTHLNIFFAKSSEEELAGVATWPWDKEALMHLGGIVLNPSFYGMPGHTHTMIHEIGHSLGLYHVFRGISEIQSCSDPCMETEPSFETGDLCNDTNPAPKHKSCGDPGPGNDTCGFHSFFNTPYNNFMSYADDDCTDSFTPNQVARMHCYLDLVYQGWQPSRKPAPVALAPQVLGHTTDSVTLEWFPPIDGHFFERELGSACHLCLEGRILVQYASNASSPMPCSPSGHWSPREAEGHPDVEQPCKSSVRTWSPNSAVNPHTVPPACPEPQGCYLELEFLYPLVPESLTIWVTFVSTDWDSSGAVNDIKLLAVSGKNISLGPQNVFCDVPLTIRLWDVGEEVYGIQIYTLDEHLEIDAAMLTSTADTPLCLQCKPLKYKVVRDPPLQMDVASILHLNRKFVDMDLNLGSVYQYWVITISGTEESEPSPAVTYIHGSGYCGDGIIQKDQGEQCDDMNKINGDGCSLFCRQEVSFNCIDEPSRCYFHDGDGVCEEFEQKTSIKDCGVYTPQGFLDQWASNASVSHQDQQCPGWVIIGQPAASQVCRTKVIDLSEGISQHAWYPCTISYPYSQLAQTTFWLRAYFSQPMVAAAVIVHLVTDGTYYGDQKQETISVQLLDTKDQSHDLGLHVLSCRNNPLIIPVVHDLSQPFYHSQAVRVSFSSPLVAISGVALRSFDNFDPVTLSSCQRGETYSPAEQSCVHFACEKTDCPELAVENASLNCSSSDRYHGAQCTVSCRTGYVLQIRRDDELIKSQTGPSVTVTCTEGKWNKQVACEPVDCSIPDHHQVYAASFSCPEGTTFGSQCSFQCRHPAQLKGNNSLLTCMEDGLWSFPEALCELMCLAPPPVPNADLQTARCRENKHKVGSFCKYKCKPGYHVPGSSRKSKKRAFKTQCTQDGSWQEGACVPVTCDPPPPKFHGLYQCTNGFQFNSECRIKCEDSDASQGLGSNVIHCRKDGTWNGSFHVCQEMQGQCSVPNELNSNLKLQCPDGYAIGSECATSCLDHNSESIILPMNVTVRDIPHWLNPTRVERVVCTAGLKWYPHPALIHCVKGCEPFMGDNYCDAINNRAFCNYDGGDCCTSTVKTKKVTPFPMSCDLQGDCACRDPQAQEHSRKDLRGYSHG
# protocol: cell-based or functional assay
# output: bare number, implied unit pIC50

*Q* Need rec. Human PAPP-A IGFBP5 pIC50 (G-401 pAKT assay), item TPP-12743 (antibody, human IgG1, kappa, V domains shown) VH: QVQLVQSGAEVKKPGASVKVSCKASGYTFTSYAMHWVRQAPGQRLEWMGWMNAGTGATKSSQKFQGRVTITRDTSASTAYMELSSLRSEDTAVYYCARGPSLETPTTFGMDVWGQGTTVTVSS VL: DIQMTQSPSSVSASVGDRVTITCRASQGISRWLAWYQQKPGKAPKLLIYAASSLQSGVPSRFSGSGSGTDFTLTISSLQPEDFATYYCQQENAYPFTFGGGTKVEIKR
*A* 9.66

More entries:
*Q* Need rec. Human PAPP-A IGFBP5 pIC50 (G-401 pAKT assay), item TPP-12792 (antibody, human IgG1, kappa, V domains shown) VH: QLQLQESGPGLVKPSETLSLTCTVSGGSISSSDYYWGWIRQPPGKGLEWIGSIFYSGSTYYNPSLKSRVTISVDTSKNQFSLKLSSVTAADTAVYYCARATTSSSADYWGQGTLVTVSS VL: DIQMTQSPSSVSASVGDRVTITCRASQGISRWLAWYQQKPGKAPKLLIYAASSVQSGVPSRFSGSGSGTDFTLTISSLQPEDFATYYCQQGNVPPLTFGGGTKVEIKR
*A* 9.35

*Q* Need rec. Human PAPP-A IGFBP5 pIC50 (G-401 pAKT assay), item TPP-12708 (antibody, human IgG1, kappa, V domains shown) VH: QVQLVQSGAEVKKPGASVKVSCKASGYTFTSYAMHWVRQAPGQRLEWMGWINAGTGATKYARKFQGRVTITRDTSASTAYMELSSLRSEDTAVYYCARGPSMETPTTYGMEVWGQGTTVTVSS VL: DIQMTQSPSSVSASVGDRVTITCRASQGISRWLAWYQQKPGKAPKLLIYSTSSLQLGVPSRFSGSGSGTDFTLTISSLQPEDFATYYCQQENDYPFTFGGGTKVEIKR
*A* 9.92

*Q* Need rec. Human PAPP-A IGFBP5 pIC50 (G-401 pAKT assay), item TPP-12821 (antibody, human IgG1, kappa, V domains shown) VH: EVQLVQSGAEVKKPGESLKISCKGSGYSFTSDWIGWVRQAPGKGLEWMGIIYPGGSDTRYSPSFRGQVTISADKSISTAYLQWSSLKASDTAVYYCARGPLRSDYVDVWGQGTMVTVSS VL: EIVMTQSPATLSVSPGERATLSCRASQSVGSNLAWYQQKPGQAPRLLIYRASTRATGIPARFSGSGSGTEFTLTISSLQSEDFAVYYCQQPYVWPITFGGGTKVEIKR
*A* 9.04

*Q* Need rec. Human PAPP-A IGFBP5 pIC50 (G-401 pAKT assay), item TPP-12681 (antibody, human IgG1, kappa, V domains shown) VH: EVQLVQSGAEVKKPGESLKISCKGSGYSFTSYWTGWVRQAPGKGLEWMGIIYPGGSVARYSPSFQGQVTISADKSISTAYLQWSSLKASDTAVYYCARGPLRSDYPDVWGQGTMVTVSS VL: EIVMTQSPATLSVSPGERATLSCRASQSVGSYLAWYQQKPGQAPRLLIYRGSTRATGIPARFSGSGSGTEFTLTISSLQSEDFAVYYCQQPYVWPITFGGGTKVEIKR
*A* 9.68
